assay: Protein binding in rat plasma assessed as unbound ligand at 0.4 mg/kg, iv and 1 mg/kg, po; type: ADME, organism-based
observed.property: fraction unbound

Lookup result for CN1CCN(CCOc2n[nH]c3ncnc(Nc4ccc(OCc5ccccn5)c(Cl)c4)c23)CC1 ; measured fraction unbound: 0.1

* * *

assay: Oral bioavailability in rat at 1 mg/kg; assay type: ADME, organism-based; conditions: in vivo
observed.property: bioavailability (%)
Give bare numbers, in %.

Lookup result for CN1CCN(CCOc2n[nH]c3ncnc(Nc4ccc(OCc5ccccn5)c(Cl)c4)c23)CC1 ; measured bioavailability: 23

* * *

target: Receptor tyrosine-protein kinase erbB-2 (Homo sapiens); test: Inhibition of erB2 autophosphorylation in clone 24 cells; format: cell-based
Sequence (P04626 whole entry): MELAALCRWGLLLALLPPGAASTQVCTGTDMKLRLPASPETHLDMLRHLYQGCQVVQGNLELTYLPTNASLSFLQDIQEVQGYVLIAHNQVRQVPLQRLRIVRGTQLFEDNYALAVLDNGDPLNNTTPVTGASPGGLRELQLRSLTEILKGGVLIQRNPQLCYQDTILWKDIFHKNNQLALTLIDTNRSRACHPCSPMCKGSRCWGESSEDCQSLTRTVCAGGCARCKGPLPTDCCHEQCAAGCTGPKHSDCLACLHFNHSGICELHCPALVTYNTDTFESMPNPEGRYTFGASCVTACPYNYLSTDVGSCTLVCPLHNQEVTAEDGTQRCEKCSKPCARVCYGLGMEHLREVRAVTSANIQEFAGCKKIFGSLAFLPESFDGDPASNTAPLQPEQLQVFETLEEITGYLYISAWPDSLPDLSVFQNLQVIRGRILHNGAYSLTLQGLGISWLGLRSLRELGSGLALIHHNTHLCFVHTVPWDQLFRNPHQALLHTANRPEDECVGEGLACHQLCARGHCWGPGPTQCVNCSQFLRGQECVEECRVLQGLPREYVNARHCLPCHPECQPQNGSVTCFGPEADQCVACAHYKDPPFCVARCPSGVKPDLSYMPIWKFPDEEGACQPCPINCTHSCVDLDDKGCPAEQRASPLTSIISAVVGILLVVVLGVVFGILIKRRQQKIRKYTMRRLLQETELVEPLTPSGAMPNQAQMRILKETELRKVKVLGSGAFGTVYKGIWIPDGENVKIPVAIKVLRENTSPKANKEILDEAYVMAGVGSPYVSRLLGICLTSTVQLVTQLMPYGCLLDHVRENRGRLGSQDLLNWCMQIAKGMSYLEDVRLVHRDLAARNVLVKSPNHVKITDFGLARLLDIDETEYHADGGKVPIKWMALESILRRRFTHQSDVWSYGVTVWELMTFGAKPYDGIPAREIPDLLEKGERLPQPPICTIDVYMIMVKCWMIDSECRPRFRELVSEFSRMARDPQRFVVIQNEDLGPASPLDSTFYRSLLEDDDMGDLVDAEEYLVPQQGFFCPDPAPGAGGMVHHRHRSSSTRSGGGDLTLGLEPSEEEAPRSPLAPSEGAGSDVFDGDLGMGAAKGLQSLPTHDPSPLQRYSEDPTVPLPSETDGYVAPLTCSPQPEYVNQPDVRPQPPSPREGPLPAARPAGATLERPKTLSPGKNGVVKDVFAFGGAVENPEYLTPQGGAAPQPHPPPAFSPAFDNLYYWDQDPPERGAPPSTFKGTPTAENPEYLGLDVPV
observed.property: IC50 (nM)
Give bare numbers, in nM.

// solved cases for IC50 follow
INSERT INTO results (compound_structure_string, observed_property, readout_value) VALUES
  ('OC1CCN(CCOc2n[nH]c3ncnc(Nc4ccc(OCc5cccc(F)c5)c(Cl)c4)c23)CC1', 'IC50', 19),
  ('CN1CCN(CCOc2n[nH]c3ncnc(Nc4ccc(OCc5ccccn5)c(Cl)c4)c23)CC1', 'IC50', 166),
  ('CNCCOc1n[nH]c2ncnc(Nc3ccc(OCc4ccccn4)c(Cl)c3)c12', 'IC50', 1000);

Moving on to the next compound.
Lookup result for CC(=O)N1CCN(CCOc2n[nH]c3ncnc(Nc4ccc(OCc5ccccn5)c(Cl)c4)c23)CC1 ; measured IC50: 129
